- SUBJECT_OF_TEST: T1, recombinant human soluble gpNMB (recombinant human gpNMB-FLAG-His) (human, UniProt Q14956 23-498)
- T1 sequence: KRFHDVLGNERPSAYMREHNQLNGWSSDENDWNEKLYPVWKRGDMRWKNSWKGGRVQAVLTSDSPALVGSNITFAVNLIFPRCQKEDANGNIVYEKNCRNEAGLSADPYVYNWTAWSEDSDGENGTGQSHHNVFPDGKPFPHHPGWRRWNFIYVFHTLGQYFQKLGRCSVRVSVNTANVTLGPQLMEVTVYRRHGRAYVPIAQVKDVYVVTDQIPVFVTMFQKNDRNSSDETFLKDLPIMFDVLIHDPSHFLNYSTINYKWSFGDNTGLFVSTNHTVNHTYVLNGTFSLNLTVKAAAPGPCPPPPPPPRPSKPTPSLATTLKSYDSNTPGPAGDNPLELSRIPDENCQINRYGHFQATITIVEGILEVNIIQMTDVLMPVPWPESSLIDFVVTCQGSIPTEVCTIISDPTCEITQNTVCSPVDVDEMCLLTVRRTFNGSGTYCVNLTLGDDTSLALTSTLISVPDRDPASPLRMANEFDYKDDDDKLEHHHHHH
- ASSAY_EXPLANATION: antigen ELISA, vs hGPN18-2_H2L3
OBSERVABLE: Relative binding activity
One number for each entry.

Prompt: Quick check: Relative binding activity of hGPN18-2_H2L3 VH G37A (antibody, V domains shown) VH: QVQLVQSGPGLVQPTQTLTLTCSFSGFSLSTSVMGVAWIRQPSGKGLEWLADIWWDDDKDYNPSLKSRLTISKDTSKNQVVLTMTNMDTVDTATYYCARTYYSNYEYYGMDYWGQGTLVTVSS VL: DIVMTQSPDSLAVSLGERATINCRSSQTIILSNGNTYLEWYQQKPGQPPKLLIYKVSNRFSGVPDRFSGSGSGTDFTLTISSLQAEDVAVYYCFQGSHVPFTFGSGTKLEIKR ?
Response: 0.87

Every entry's value here was drawn from patent EP4772193A1.
